- assayed.target: 17α-hydroxylase (Homo sapiens, UniProt P05093)
- Sequence (P05093 whole entry): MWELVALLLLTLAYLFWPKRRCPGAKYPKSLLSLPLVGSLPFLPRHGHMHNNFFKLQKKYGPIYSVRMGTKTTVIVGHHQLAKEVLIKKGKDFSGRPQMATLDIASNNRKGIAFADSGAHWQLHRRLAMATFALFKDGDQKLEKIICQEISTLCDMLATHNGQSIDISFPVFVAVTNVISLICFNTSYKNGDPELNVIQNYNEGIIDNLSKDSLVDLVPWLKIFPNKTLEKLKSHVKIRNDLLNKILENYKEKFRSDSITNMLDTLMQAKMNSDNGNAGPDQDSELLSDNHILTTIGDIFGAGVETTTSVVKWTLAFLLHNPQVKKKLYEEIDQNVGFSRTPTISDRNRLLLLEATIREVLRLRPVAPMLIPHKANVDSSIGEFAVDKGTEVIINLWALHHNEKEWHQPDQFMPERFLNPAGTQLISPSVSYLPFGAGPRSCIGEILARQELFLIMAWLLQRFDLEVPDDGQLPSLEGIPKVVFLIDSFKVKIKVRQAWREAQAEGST

# molecule, assayed.target, IC50
records = [
    ("C[C@]12CCC(=O)C[C@@H]1CC[C@@H]1[C@@H]2CC[C@]2(C)C(c3cccnc3)=CC[C@@H]12", "17α-hydroxylase (Homo sapiens, UniProt P05093)", "4.7 nM"),
]

---

- assayed.target: aromatase (Homo sapiens)
- Sequence (P11511 whole entry): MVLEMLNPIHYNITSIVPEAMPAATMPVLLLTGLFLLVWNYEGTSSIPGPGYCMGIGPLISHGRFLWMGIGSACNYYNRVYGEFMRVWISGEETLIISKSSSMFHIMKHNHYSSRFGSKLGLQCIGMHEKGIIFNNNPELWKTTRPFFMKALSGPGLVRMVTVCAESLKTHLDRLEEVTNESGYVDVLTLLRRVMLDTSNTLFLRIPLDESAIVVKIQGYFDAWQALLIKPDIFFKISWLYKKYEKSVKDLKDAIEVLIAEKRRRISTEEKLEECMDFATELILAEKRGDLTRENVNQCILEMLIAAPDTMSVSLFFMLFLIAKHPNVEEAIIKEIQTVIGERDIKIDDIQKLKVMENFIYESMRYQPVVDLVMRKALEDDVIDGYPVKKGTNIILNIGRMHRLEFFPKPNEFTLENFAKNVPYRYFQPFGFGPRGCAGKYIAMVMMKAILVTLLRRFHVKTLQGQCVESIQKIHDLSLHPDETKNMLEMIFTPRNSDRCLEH
pIC50: −log10 of the molar value.
assay.readout: pIC50

# compound, assayed.target, measurement
records = [
    ("C[C@]12CC[C@H](O)CC1=CC[C@@H]1[C@@H]2CC[C@]2(C)C(c3cccnc3)=CC[C@@H]12 [Ex. 2, 17-(3-Pyridyl)androsta-5,16-dien-3β-ol]", "aromatase (Homo sapiens)", "< 4.70"),
]
